Biological target: Adenosine receptor A1 (Homo sapiens) (UniProt P30542)
Sequence (P30542 whole entry): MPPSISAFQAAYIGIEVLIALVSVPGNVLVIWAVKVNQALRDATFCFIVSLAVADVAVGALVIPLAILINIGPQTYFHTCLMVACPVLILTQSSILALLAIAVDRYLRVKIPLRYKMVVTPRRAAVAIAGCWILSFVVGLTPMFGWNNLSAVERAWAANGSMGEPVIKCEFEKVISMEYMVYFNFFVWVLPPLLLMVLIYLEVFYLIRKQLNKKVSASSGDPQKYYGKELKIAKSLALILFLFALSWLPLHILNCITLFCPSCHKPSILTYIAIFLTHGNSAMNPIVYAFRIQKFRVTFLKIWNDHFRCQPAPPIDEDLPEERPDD
Assay: Displacement of [3H]N6-R-phenylisopropyladenosine from human adenosine A1 receptor expressed in CHO cell membranes at 10 uM
Assay readout: inhibition (%)

Smiles data | Measured number
CNC(=O)[C@@]12C[C@@H]1[C@@H](n1cnc3c(NC4CC4)nc(C#Cc4ccc(Cl)s4)nc31)[C@H](O)[C@@H]2O | 47
CCCNc1cc(-n2cc(-c3ccc(Cl)s3)nn2)nc2c1ncn2[C@H]1[C@H](O)[C@H](O)[C@]2(C(=O)NC)C[C@H]12 | 44
CCCCNc1nc(C#Cc2ccc(Cl)s2)nc2c1ncn2[C@H]1[C@H](O)[C@H](O)[C@]2(C(=O)NC)C[C@H]12 | 6
CNC(=O)[C@@]12C[C@@H]1[C@@H](n1cnc3c(NCC4CC4)nc(C#Cc4ccc(Cl)s4)nc31)[C@H](O)[C@@H]2O | 24
CNC(=O)[C@@]12C[C@@H]1[C@@H](n1cnc3c(NCC4CCC4)nc(C#Cc4ccc(Cl)s4)nc31)[C@H](O)[C@@H]2O | 34
CCNc1cc(C#Cc2ccc(Cl)s2)nc2c1ncn2[C@H]1[C@H](O)[C@H](O)[C@]2(C(=O)NC)C[C@H]12 | 10
CNC(=O)[C@@]12C[C@@H]1[C@@H](n1cnc3c(NC4CC4)cc(C#Cc4ccc(Cl)s4)nc31)[C@H](O)[C@@H]2O | 26

###

Target: Adenosine receptor A2a (Homo sapiens)
Assay: Displacement of [3H]2-[p-(2-carboxyethyl)phenyl-ethylamino]-5'-Nethylcarboxamidoadenosine from human adenosine A2A receptor expressed in HEK293 cell membranes at 10 uM
Assay readout: inhibition (%)

Smiles data | Result unit | Measured number
CNC(=O)[C@@]12C[C@@H]1[C@@H](n1cnc3c(NC4CC4)cc(C#Cc4ccc(Cl)s4)nc31)[C@H](O)[C@@H]2O | % | 11
CNC(=O)[C@@]12C[C@@H]1[C@@H](n1cnc3c(NC(C)C)nc(C#Cc4ccc(Cl)s4)nc31)[C@H](O)[C@@H]2O | % | 17
CNC(=O)[C@@]12C[C@@H]1[C@@H](n1cnc3c(NCC4CC4)nc(C#Cc4ccc(Cl)s4)nc31)[C@H](O)[C@@H]2O | % | 3
CCCNc1nc(C#Cc2ccc(Cl)s2)nc2c1ncn2[C@H]1[C@H](O)[C@H](O)[C@]2(C(=O)NC)C[C@H]12 | % | 34
CNC(=O)[C@@]12C[C@@H]1[C@@H](n1cnc3c(NC)cc(C#Cc4ccc(Cl)s4)nc31)[C@H](O)[C@@H]2O | % | 8
CNC(=O)[C@@]12C[C@@H]1[C@@H](n1cnc3c(NCC4CCC4)nc(-n4cc(-c5ccc(Cl)s5)nn4)nc31)[C@H](O)[C@@H]2O | % | 42
CNC(=O)[C@@]12C[C@@H]1[C@@H](n1cnc3c(NCC4CC4)nc(-n4cc(-c5ccc(Cl)s5)nn4)nc31)[C@H](O)[C@@H]2O | % | 44

###

Target: Adenosine receptor A3 (Homo sapiens, UniProt P0DMS8)
Sequence (P0DMS8 whole entry): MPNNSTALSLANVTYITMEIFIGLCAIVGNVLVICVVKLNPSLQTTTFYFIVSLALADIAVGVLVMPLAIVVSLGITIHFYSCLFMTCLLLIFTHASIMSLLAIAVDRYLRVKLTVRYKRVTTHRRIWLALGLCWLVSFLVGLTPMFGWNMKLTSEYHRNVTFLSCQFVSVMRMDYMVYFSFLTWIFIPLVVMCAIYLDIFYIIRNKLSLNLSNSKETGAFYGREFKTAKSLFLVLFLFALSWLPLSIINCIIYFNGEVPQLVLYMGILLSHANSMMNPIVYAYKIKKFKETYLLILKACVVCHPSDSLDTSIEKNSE
# log10 of Ki per record follows
Assay readout: log10 of Ki (log10 of the value in nM)

Smiles data | Measured number
CNC(=O)[C@@]12C[C@@H]1[C@@H](n1cnc3c(NCC4CCC4)nc(C#Cc4ccc(Cl)s4)nc31)[C@H](O)[C@@H]2O | 1.18
CCNc1cc(C#Cc2ccc(Cl)s2)nc2c1ncn2[C@H]1[C@H](O)[C@H](O)[C@]2(C(=O)NC)C[C@H]12 | 0.23
CCCCNc1nc(C#Cc2ccc(Cl)s2)nc2c1ncn2[C@H]1[C@H](O)[C@H](O)[C@]2(C(=O)NC)C[C@H]12 | 0.46
CCCNc1cc(C#Cc2ccc(Cl)s2)nc2c1ncn2[C@H]1[C@H](O)[C@H](O)[C@]2(C(=O)NC)C[C@H]12 | 1.58
CNC(=O)[C@@]12C[C@@H]1[C@@H](n1cnc3c(NC4CCC4)nc(C#Cc4ccc(Cl)s4)nc31)[C@H](O)[C@@H]2O | 0.65
CNC(=O)[C@@]12C[C@@H]1[C@@H](n1cnc3c(NC(C)C)nc(C#Cc4ccc(Cl)s4)nc31)[C@H](O)[C@@H]2O | 0.46
CCCNc1nc(C#Cc2ccc(Cl)s2)nc2c1ncn2[C@H]1[C@H](O)[C@H](O)[C@]2(C(=O)NC)C[C@H]12 | 0.04
